- Tested on: MS2 coat protein
- Test: apparent KD of MS2 coat protein; designed switch direction (-1 OFF switch, 1 ON switch): -1; higher = weaker reporter binding
- Applied conditions: input ligand: FMN 200 uM
Give Y when the value for apparent KD of MS2 coat protein is at least 40 nM. Give N when it is less.

>>> qualitative_label("GAUGUGAGACAGGAUAUCCACGGGAUAGUCUGAGGAGAAGGGUCUACAUGAGGAUCACCCAUGUGCGUCCCUCA [EX6 B.8] (Eterna round: R97, puzzle: Exclusion 6)")
"N"
>>> qualitative_label("UUAUUAUAUGUAGGAUAUGCGUAUUGUUGUUAUGCAGAAGGACAUGAGGAUCACCCAUGUAUAUUAUUGUUAUAUAUUAUAUAU [Title] (Eterna round: R96, puzzle: Exclusion NG 1)")
"Y"
>>> qualitative_label("AACAGUGAUGAGGAUAUAUAAAGAGAAAAGAAAAUAGAAGGUGUCACAUGAGGAUCACCCAUGUGUUCUUCAGA [EX6 A.12] (Eterna round: R97, puzzle: Exclusion 6)")
"N"
>>> qualitative_label("GUCGUGCGGCUGUGCUGUACGAGUACAUGAGGAUCACCCAUGUAGGAUAUGGUUCGUUUUGCGUGCUAGAAGGGCGUGCGUUUU [Excl-NG3-LRO17] (Eterna round: R96, puzzle: Exclusion NG 3)")
"N"
>>> qualitative_label("ACAUGAGGAUCACCCAUGUAAACAUAAUGGCUGAUGUAGAGUCAGGAUAUGUGUGGCUAACAAUCGCAGAAGGGACAAGACUGG [Deportation 31 - Jieux - Exclusion NG 3] (Eterna round: R96, puzzle: Exclusion NG 3)")
"N"
>>> qualitative_label("UUAAUACAUGAGGAUCACCCAUGUCAGGAUAUCCGUAUUUCUUAUAUAUAUUUCUAUCGGAGAAGGGACACAUU [lam1] (Eterna round: R97, puzzle: Exclusion 1)")
"Y"
>>> qualitative_label("AGGGCACGAGGAUAUGUGAAACUGGACUUGAGGAUCACCCAAGUCGUCUUCGUGUCCAAAGCAGAAGGCGUGGCCA [Zaesce] (Eterna round: R97, puzzle: Exclusion 5)")
"N"
>>> qualitative_label("ACUUAUUGAGGAUAUACAUUAAAAUACAUGAGGAUCACCCAUGUUCUUCAAUGUAUAUAUGUAGAAGGCAGAAGAA [JL-ex5-4.29 Malcolm mod] (Eterna round: R97, puzzle: Exclusion 5)")
"Y"
>>> qualitative_label("GCAGUUCGAGUUAGGAUAUGAUGUUAAUUCGGAUAUCAGAAGGAACUUGAGGAUCACCCAAGUAUAGAUGUUGC [JR_BMEx4_Sub060] (Eterna round: R97, puzzle: Brourd's mod of Exclusion 4)")
"N"

###

- System: MS2 coat protein
- Test: apparent KD of MS2 coat protein; designed switch direction (-1 OFF switch, 1 ON switch): -1; higher = weaker reporter binding
- Applied conditions: input ligand: FMN 200 uM
Here, each record is paired with measured apparent KD of MS2 coat protein data.
Measurement label: apparent KD of MS2 coat protein (nM)

>>> measured_result("UAAUUGUGAGGAUAUUCGUAUAACACGGAGACGUGUUGUACGGAGAAGGCACAUGAGGAUCACCCAUGUUCCUU [Mat - Exclusion 4 - JL Mod - D18] (Eterna round: R97, puzzle: Exclusion 4)")
96
>>> measured_result("AGAUAGUGGUGAGGAUAUCAGAAUAGAAAGAAAUGAGAAGGCACACAUGAGGAUCACCCAUGUGAGGUCUUGAGACUACAUGGU [Prohibition 40 - Jieux - Exclusion NG 1] (Eterna round: R96, puzzle: Exclusion NG 1)")
21.2
>>> measured_result("GCACAGGCAGGAUAUACAUGAGGAUCACCCAUGUGAUCCCUUAAGUACAAAAGUACAAGUAGAAGGGCCUGUGC [Omei Ex3 Model Bachelor's Dilema v43] (Eterna round: R97, puzzle: Exclusion 3)")
21.2
>>> measured_result("UAAUUGAUUAAUAGAUUAUACAUGAGGAUCACCCAUGUAGGUCCUACGUGCCAUUUAAGCAGCUCGUCUUAUUCCCA [Sensor-V1 #68] (Eterna round: R97, puzzle: Sensor, turn-off variant 1)")
41.8
>>> measured_result("GCGCCAUCGUGAGAUGGCGUAACUACAUGAGGAUCACCCAUGUAGGAUAUCGAUUGCUUUGCAGUCGAGAAGGGCAUGGUUUGU [JL ENG3 3.86] (Eterna round: R96, puzzle: Exclusion NG 3)")
56.1
>>> measured_result("GGCGGACAUGAGGAUCACCCAUGUUAGGAUAUGGUGCGAUCGUCGAUAGACGAUAGCACCAGAAGGGACACGCC [Mat - Exclusion 1 - Eli Mod - D2] (Eterna round: R97, puzzle: Exclusion 1)")
16.6
>>> measured_result("AAUGCCAGAGGAUAUACAUGAGGAUCACCCAUGUUAAAUGAUCCUGUGCUAGAUGCACGUAGAAGGCUGUAAAA [EX3 A.8] (Eterna round: R97, puzzle: Exclusion 3)")
15.5
>>> measured_result("GACUUCUCUGAGGAUAUUGCAUCAUACGAUUUAUAAGAAGGCAGAACAUGAGGAUCACCCAUGUGGGUUUUUAG [Bingo-Bango-30] (Eterna round: R97, puzzle: Exclusion 6)")
102
>>> measured_result("UAACAGUAAGGAUAUCCAGAUCCAGACAUGAGGAUCACCCAUGUCAUAUACCUUUGACACGGAGAAGGUACGAAAA [EX5 A.4] (Eterna round: R97, puzzle: Exclusion 5)")
52.3
